Test: MTT cytotoxic assay, HepG2
Assay type: cell-based
Settings: human, HepG2 cells
measured.endpoint: IC50 at 3 days (µM)
Could you give me the number in µM? Just the number is fine.

INPUT: # IC50 at 3 days lookup, item `COc1cccc2c1C(=O)c1c(O)c3c(c(O)c1C2=O)C[C@@](O)(C(=O)CO)C[C@@H]3O[C@H]1C[C@H](N)[C@H](O)[C@H](C)O1`
OUTPUT: 1.25

---

Assay: MTT cytotoxic assay, HeLa
Type: cell-based
Conditions: human, HeLa cells
measured.endpoint: IC50 at 3 days (nM)
Could you give me the number in nM? Just the number is fine.

INPUT: # IC50 at 3 days lookup, item `COc1cccc2c1C(=O)c1c(O)c3c(c(O)c1C2=O)C[C@@](O)(C(=O)CO)C[C@@H]3O[C@H]1C[C@H](N)[C@H](O)[C@H](C)O1`
OUTPUT: 480

---

Experiment: MTT cytotoxic assay, A549
Assay type: cell-based
Settings: human, A549 cells
measured.endpoint: IC50 at 3 days (nM)
Could you give me the number in nM? Just the number is fine.

INPUT: # IC50 at 3 days lookup, item COc1cccc2c1C(=O)c1c(O)c3c(c(O)c1C2=O)C[C@@](O)(C(=O)CO)C[C@@H]3O[C@H]1C[C@H](N)[C@H](O)[C@H](C)O1 [Adriamycin, adriamycin]
OUTPUT: 680
